Test system: MRC-5 cells
procedure_details: Cytotoxicity by immunofluorescence cell scoring (cell counts), normal fibroblasts
Format: cell-based, human
condition_set: MRC-5 monoculture, 24 h treatment
measure_name: IC50 (µM)
Reply with just the number (in µM).

Consider the compound shown here: N.N.[Cl][Pt][Cl] [Cisplatin, cisplatin] What is its recorded IC50? 14.7

* * *

I'd appreciate it if you could supply IC50 values for the items below.
System: Non-cancer cells (CK8/18-) of patient-derived NSCLC cultures
procedure_details: Cytotoxicity in patient-derived NSCLC cultures, non-cancer cells
Format: cell-based, human
condition_set: culture TR84, non-cancer cells (CK8/18-), 7 days treatment
API: value field is a number in nM; no unit string.

GET /values?readout=IC50&item= N.N.O=C([O-])C1(C(=O)[O-])CCC1.[Pt+2] [Carboplatin] 1280

Repeat with N.N.[Cl][Pt][Cl] [Cisplatin, cisplatin] 789
